- protocol details: folding enthalpy; higher = less favourable; fluorescence melt of hairpins on a sequencing array, two-state fit
- stated conditions: sodium 0.088 M
quantity name: folding enthalpy (kcal/mol)
I only need the number, in kcal/mol, no unit after it.

Example entries and their recorded answers appear below.
monomer sequence	quantity name	value measured
GAAACCGAAAGGTTGTTC ((((((....)))..)))	folding enthalpy	-13.7
GCTGTAGCGAAAGCTAGC (((..(((....))))))	folding enthalpy	-14
GCCTAGCGAAAGCTCTGC ((..(((....)))..))	folding enthalpy	-11.7
GGATCCGAAAGGAGTCC ((((((....))).)))	folding enthalpy	-18.5
GGGTTTGGAAACAGATCC ((.(.((....)).).))	folding enthalpy	-13
GTGTTCGGAAACGGACAC ((((.((....)).))))	folding enthalpy	-44.6

Answer with reported folding enthalpy of GAGGTAGCGAAAGCTCTC (((..(((....)))))) -13.6

Supply measured folding enthalpy of GATCTTGCAGAAGATC ((((((....)))))) in your reply. -34.8
